Source of measurements: ChEMBL document CHEMBL1764951

Kindly supply the reported GI50 values for the records listed here.
System: A549
Assay: Cytotoxicity against human A549 cells after 48 hrs by sulforhodamine B based ELISA
Type: functional
Conditions: A549, 48 h
Counter-ions that a name gives are not always drawn.

As a guide, the following entries are already answered.
COMPOUND: COc1cccc2c1C(=O)c1c(O)c3c(c(O)c1C2=O)C[C@@](O)(C(=O)CO)C[C@@H]3O[C@H]1C[C@H](N)[C@H](O)[C@H](C)O1 [DOXORUBICIN HYDROCHLORIDE]
GI50: < 0.1 µM
--
COMPOUND: COc1cc([C@@H]2c3cc4c(cc3[C@@H](O[C@@H]3O[C@@H]5CO[C@@H](C)O[C@H]5[C@H](O)[C@H]3O)[C@H]3COC(=O)[C@H]23)OCO4)cc(OC)c1O [ETOPOSIDE]
GI50: 3.08 µM
--
COMPOUND: COc1cc(C2C3=C(COC3=O)Nc3ccc4cc[nH]c4c32)cc(OC)c1OC (stereo not given)
GI50: 2.4 µM
--
COMPOUND: COc1ccc(C2C3=C(COC3=O)Nc3ccc4cc[nH]c4c32)cc1O (stereo not given)
GI50: 2.3 µM
--
COMPOUND: COc1nc2c(c(OC)n1)C(c1cc(OC)c(OC)c(OC)c1)C1=C(COC1=O)N2 (stereo not given)
GI50: 2.1 µM
--
COMPOUND: COc1cc(C2C3=C(COC3=O)Nc3ccc4cn[nH]c4c32)ccc1F (stereo not given)
GI50: 2.3 µM

For each of the compounds below, state GI50.
1. COc1cc(C2C3=C(COC3=O)Nc3ccc4cc(C)[nH]c4c32)ccc1F (stereo not given)
2. COc1nc2c(c(OC)n1)C(c1ccc(F)c(OC)c1)C1=C(COC1=O)N2 (stereo not given)
3. COc1cc(C2C3=C(COC3=O)Nc3ccc4cc[nH]c4c32)ccc1F (stereo not given)
4. COc1cc(C2C3=C(COC3=O)Nc3ccc4ncsc4c32)cc(OC)c1OC (stereo not given)

result:
1: 2.1 µM; 2: 2.6 µM; 3: 2.2 µM; 4: 2.4 µM

====

Tested on: MCF7
Assay: Cytotoxicity against human MCF7 cells after 48 hrs by sulforhodamine B based ELISA
Format: functional
Conditions: MCF7, 48 h
Where a name gives a salt, the structure may show the parent alone.
EXPERIMENTAL READOUT: GI50 (nM)
Answers are plain numbers, in nM.

COMPOUND: COc1cc(C2C3=C(COC3=O)Nc3ccc4cc[nH]c4c32)ccc1O (centres undefined)
UNIT TEXT: nM
GI50: 2300

For each of the compounds below, state GI50.
1. COc1ccc(C2C3=C(COC3=O)Nc3ccc4nc(S)[nH]c4c32)cc1O (centres undefined)
2. COc1cc(C2C3=C(COC3=O)Nc3ccc4cc[nH]c4c32)ccc1F (centres undefined)
3. COc1cc(C2C3=C(COC3=O)Nc3ccc4cn[nH]c4c32)ccc1O (centres undefined)
4. COc1cccc2c1C(=O)c1c(O)c3c(c(O)c1C2=O)C[C@@](O)(C(=O)CO)C[C@@H]3O[C@H]1C[C@H](N)[C@H](O)[C@H](C)O1 [DOXORUBICIN HYDROCHLORIDE]
5. COc1nc2c(c(OC)n1)C(c1cc(OC)c(OC)c(OC)c1)C1=C(COC1=O)N2 (centres undefined)
6. COc1ccc(C2C3=C(COC3=O)Nc3ccc4cc[nH]c4c32)cc1O (centres undefined)
7. COc1cc([C@@H]2c3cc4c(cc3[C@@H](O[C@@H]3O[C@@H]5CO[C@@H](C)O[C@H]5[C@H](O)[C@H]3O)[C@H]3COC(=O)[C@H]23)OCO4)cc(OC)c1O [ETOPOSIDE]

result:
1. 2700
2. 2100
3. 2000
4. 130
5. 2400
6. 2900
7. 2100
